Provide the reported TGI of each item.
- System: KM12 colon
- assay.name: NCI tumour cell line growth inhibition, 48 h

Enquiry: Output measured TGI for this item: Cc1ccc(/C=C(\NC(=O)c2ccccc2)c2nc3ccccc3[nH]2)cc1
Return: > 100 µM

Enquiry: Output measured TGI for this item: CC(C)CCCC(C)[C@H]1CC[C@H]2n3c(nc4ccccc43)CCC[C@]12C (stereo partly specified)
Return: 52.5 µM

Enquiry: Output measured TGI for this item: O=c1cc(NNCc2ccccc2)[nH]c(=O)[nH]1
Return: > 100 µM

Enquiry: Output measured TGI for this item: N#CC(C#N)=C1CCOc2ccc(F)cc21
Return: > 100 µM

Enquiry: Output measured TGI for this item: Cc1ccc2cccc(OC(=O)Nc3cccc(C(F)(F)F)c3)c2n1
Return: 10.9 µM

Enquiry: Output measured TGI for this item: Cc1c2c(nc3ccccc13)C(=O)c1cccnc1C2=O
Return: > 100 µM

Enquiry: Output measured TGI for this item: O=C(O)c1ccccc1CC1Cc2cc3c(cc2C1)CCC3
Return: > 100 µM

Enquiry: Output measured TGI for this item: COc1ccc(C2CC(c3ccc(Nc4ccnc5cc(Cl)ccc45)cc3)=NN2C=O)cc1 (stereo unspecified)
Return: > 100 µM

Enquiry: Output measured TGI for this item: Cn1cc(C2=C(c3cn(-c4ccccc4)c4ccccc34)C(=O)NC2=O)c2ccccc21
Return: > 25 µM

Enquiry: Output measured TGI for this item: CCOC(=O)CC[C@H](NC(=O)N[C@H](C)c1ccccc1)C(=O)OCC
Return: > 100 µM

Enquiry: Output measured TGI for this item: CN(C)CCCSc1ccccc1NC1=C(Cl)C(=O)C(Nc2ccccc2SCCCN(C)C)=C(Cl)C1=O
Return: 4.09 µM
